The reported measurements were obtained from the supplement of paper PMC9732359.

ASSAY_DETAILS: protein stability index of a GFP-peptide fusion (yeast GPS) (PSI 1-4); higher = more stable; sorted into four equal gates, so the index is relative within each strain
COND: doa10∆
EXPERIMENTAL_ENDPOINT: protein stability index

>  <SEQUENCE_CONTENT>
KYLIKYNVFRQHTSFQE [CSI1]

>  <EXPERIMENTAL_ENDPOINT>
protein stability index

>  <OBSERVED>
1.24

$$$$
>  <SEQUENCE_CONTENT>
TYPAGFMDVITLDATNE [RPS4A]

>  <EXPERIMENTAL_ENDPOINT>
protein stability index

>  <OBSERVED>
2.71

$$$$
>  <SEQUENCE_CONTENT>
TPLLENISISTSELGND [BRR2]

>  <EXPERIMENTAL_ENDPOINT>
protein stability index

>  <OBSERVED>
2.16

$$$$
>  <SEQUENCE_CONTENT>
VANVKDLETLTMHTKTY [RPL32]

>  <EXPERIMENTAL_ENDPOINT>
protein stability index

>  <OBSERVED>
3.08

$$$$
>  <SEQUENCE_CONTENT>
FNSVKSFDEWFNTPFAN [SNF2]

>  <EXPERIMENTAL_ENDPOINT>
protein stability index

>  <OBSERVED>
2.9

$$$$
>  <SEQUENCE_CONTENT>
RAVLTPLITRHCYPRQL [RRP46]

>  <EXPERIMENTAL_ENDPOINT>
protein stability index

>  <OBSERVED>
2.4

$$$$
>  <SEQUENCE_CONTENT>
IVHDDPASDDILDNINH [ITC1]

>  <EXPERIMENTAL_ENDPOINT>
protein stability index

>  <OBSERVED>
2.98

$$$$
>  <SEQUENCE_CONTENT>
YAVKAVENGTTSIGIKC [PRE10]

>  <EXPERIMENTAL_ENDPOINT>
protein stability index

>  <OBSERVED>
2.04

$$$$
>  <SEQUENCE_CONTENT>
NEPLSEIEIEGVMSLLQ [YAR002W/NUP60]

>  <EXPERIMENTAL_ENDPOINT>
protein stability index

>  <OBSERVED>
3.31

$$$$
>  <SEQUENCE_CONTENT>
PNEHPGAKYVIRDSGDR [RPO21]

>  <EXPERIMENTAL_ENDPOINT>
protein stability index

>  <OBSERVED>
3.01

$$$$
>  <SEQUENCE_CONTENT>
TANALPLPAVFSAPIRP [RPL4A]

>  <EXPERIMENTAL_ENDPOINT>
protein stability index

>  <OBSERVED>
1.79

$$$$
>  <SEQUENCE_CONTENT>
AGIVPVSANTPKSLNSN [SWI1]

>  <EXPERIMENTAL_ENDPOINT>
protein stability index

>  <OBSERVED>
3.07

$$$$
>  <SEQUENCE_CONTENT>
HLMSWSKTGIIAYSDSQ [SIN4]

>  <EXPERIMENTAL_ENDPOINT>
protein stability index

>  <OBSERVED>
1.63

$$$$
>  <SEQUENCE_CONTENT>
SADREIQRTLMELLTQM [RPT4]

>  <EXPERIMENTAL_ENDPOINT>
protein stability index

>  <OBSERVED>
2.93

$$$$
>  <SEQUENCE_CONTENT>
IALNLDTTVNDCLDKLL [SNF2]

>  <EXPERIMENTAL_ENDPOINT>
protein stability index

>  <OBSERVED>
2.54

$$$$
>  <SEQUENCE_CONTENT>
TSKWLNSITSGGLKSCD [YDL116W/NUP84]

>  <EXPERIMENTAL_ENDPOINT>
protein stability index

>  <OBSERVED>
2.94

$$$$
>  <SEQUENCE_CONTENT>
ISENTFPNGFKNFENGP [RPC34]

>  <EXPERIMENTAL_ENDPOINT>
protein stability index

>  <OBSERVED>
2.96

$$$$
>  <SEQUENCE_CONTENT>
KLHMGTEDVRLAPELNQ [RPL31B]

>  <EXPERIMENTAL_ENDPOINT>
protein stability index

>  <OBSERVED>
2.81

$$$$
>  <SEQUENCE_CONTENT>
MNHDPFSWGRPADSTYG [PRE4]

>  <EXPERIMENTAL_ENDPOINT>
protein stability index

>  <OBSERVED>
3.05

$$$$
>  <SEQUENCE_CONTENT>
LALEIIVRPAKGVATTR [RRP46]

>  <EXPERIMENTAL_ENDPOINT>
protein stability index

>  <OBSERVED>
2.09

$$$$
>  <SEQUENCE_CONTENT>
KFSLPFEQKGSQTTTND [YLR335W/NUP2]

>  <EXPERIMENTAL_ENDPOINT>
protein stability index

>  <OBSERVED>
3.25

$$$$
>  <SEQUENCE_CONTENT>
IKDEIDDPFTKINTRGA [SWI1]

>  <EXPERIMENTAL_ENDPOINT>
protein stability index

>  <OBSERVED>
1.96

$$$$
>  <SEQUENCE_CONTENT>
FSFGGTQTGQNTGPSTG [YGL172W/NUP49]

>  <EXPERIMENTAL_ENDPOINT>
protein stability index

>  <OBSERVED>
3.59

$$$$
>  <SEQUENCE_CONTENT>
VIRMVVLTAAGVERLIF [PRE3]

>  <EXPERIMENTAL_ENDPOINT>
protein stability index

>  <OBSERVED>
2.33

$$$$
>  <SEQUENCE_CONTENT>
TISEKEQDILDLIAEQV [SSN2]

>  <EXPERIMENTAL_ENDPOINT>
protein stability index

>  <OBSERVED>
3.08

$$$$
>  <SEQUENCE_CONTENT>
RAIPFRRFNSSIGRTAQ [RPL17A]

>  <EXPERIMENTAL_ENDPOINT>
protein stability index

>  <OBSERVED>
2.91

$$$$
>  <SEQUENCE_CONTENT>
NSDHAKFTIEPGVLPVG [SNF2]

>  <EXPERIMENTAL_ENDPOINT>
protein stability index

>  <OBSERVED>
2.23

$$$$
>  <SEQUENCE_CONTENT>
LELRNSVMDDILEMMPE [PRP8]

>  <EXPERIMENTAL_ENDPOINT>
protein stability index

>  <OBSERVED>
3.53

$$$$
>  <SEQUENCE_CONTENT>
LRFGEGASGEERLMSRP [PUP2]

>  <EXPERIMENTAL_ENDPOINT>
protein stability index

>  <OBSERVED>
3.52

$$$$
>  <SEQUENCE_CONTENT>
KMIILDKLLKRLKEKGS [ISW2]

>  <EXPERIMENTAL_ENDPOINT>
protein stability index

>  <OBSERVED>
1.58

$$$$
